# method: Human HepG2 cell viability assay in 384 well format
# Type: toxicity, cell-based
# Parameters: dose 125 nL, time 70.5 hour; concentration not given beside the values
# particulars: HepG2 cells, read-out: Inhibition
reported-metric: cytotoxicity at 70.5 h (%)
The answer is to be given in %; state only the numeric part.

> print(dat)
                                   molecule  quantitative.result
1   COc1ccccc1C(=O)N1CCC(Oc2ccc(C#N)cn2)CC1                -2.18
2  CCc1nnc(CN(CC)C(=O)C2CC(=O)N(C3CC3)C2)o1 (configuration not stated)                -3.34
3  CCOC(=O)C1=NOC(Cc2cc(OC)c3c(c2)OCO3)C1 (configuration not stated)                 18.8

Prompt: For C[S+]([O-])CCNC(=O)Nc1cc(F)ccc1-n1cccn1 (configuration not stated) , what is its reported cytotoxicity at 70.5 h?
Completion: 15.9

Prompt: For Cc1ccsc1CN(C)C(=O)Cn1nc(-c2ccc(F)cc2)oc1=O , what is its reported cytotoxicity at 70.5 h?
Completion: 4.04

Prompt: For O=C(CNC(=O)Nc1cccc(-c2nccs2)c1)NCCO , what is its reported cytotoxicity at 70.5 h?
Completion: -2.39

Prompt: For O=C(Cn1nc2c(cc1=O)CSCC2)NC(Cc1ccccc1)C(=O)O (configuration not stated) , what is its reported cytotoxicity at 70.5 h?
Completion: 23

Prompt: For CCS(=O)(=O)N1CCCC(n2nnn(-c3ccccc3)c2=O)C1 (configuration not stated) , what is its reported cytotoxicity at 70.5 h?
Completion: -4.32

Prompt: For CNC(=O)c1cc2c(nc1N(C)C)CCN(S(=O)(=O)C1CC1)CC2 , what is its reported cytotoxicity at 70.5 h?
Completion: 20.2

Prompt: For CNC(=O)c1cnc2c(C)csc2c1 , what is its reported cytotoxicity at 70.5 h?
Completion: 22

Prompt: For N#Cc1cc2c(nc1SCc1cc(O)nc(O)n1)CCCC2 , what is its reported cytotoxicity at 70.5 h?
Completion: -7.89

Prompt: For Fc1ccccc1-c1nnn(CCCc2nn[nH]n2)n1 , what is its reported cytotoxicity at 70.5 h?
Completion: -5.54

* * *

// reported cytotoxicity at 70.5 h per item
# method: Human HepG2 cell viability assay in 384 well format
# Type: toxicity, cell-based
# Parameters: dose 125 nL, time 70.5 hour; concentration not given beside the values
# particulars: HepG2 cells, read-out: Inhibition
Entry format: amount then unit.

A selection of reference data follows.
> print(dat)
                                   compound  result
1  CCC(NC(=O)c1cnc(N(C)C)nc1C)c1ccncc1 (configuration not stated)  -6.22%
2       CCc1ccc(CN2CCN(c3ncc(Cl)cn3)CC2)nc1  -5.54%
3  Cc1cn2nc(N3CCCCC3Cn3cccn3)sc2n1 (configuration not stated)   22.5%
4  Cc1cccc(C2(CNC(=O)C(C)S(C)(=O)=O)CCCC2)c1 (configuration not stated)  -3.73%
5  COC(=O)C(c1cc(F)ccc1F)N(C)C(=O)c1cnc(C)cn1 (configuration not stated)  -9.59%
6  COc1ccc(CN2C[C@@H]3CC[C@H](C2)N(S(C)(=O)=O)C3)cc1  -7.94%

Pending compound:
Prompt: For COCCCSc1ccc(NCc2cscn2)cc1 , what is its reported cytotoxicity at 70.5 h?
Completion: -2.43%

* * *

# method: Human HepG2 cell viability assay in 384 well format
# Format: toxicity, cell-based
# Parameters: dose 125 nL, time 70.5 hour; concentration not given beside the values
# particulars: HepG2 cells, read-out: Inhibition
reported-metric: cytotoxicity at 70.5 h (%)
The answer is to be given in %; state only the numeric part.

A selection of reference data follows.
> print(dat)
                                molecule  quantitative.result
1         Cc1noc(C)c1CN(C)C(=O)NC1CCOCC1                   21
2  c1ccc(OCc2n[nH]c3c2CN(Cc2cccs2)C3)nc1               -0.121

Prompt: For Cc1nc[nH]c1-c1nnc(SCC(=O)O)n1-c1ccccc1C(F)(F)F , what is its reported cytotoxicity at 70.5 h?
Completion: -6.65

Prompt: For CCS(=O)(=O)N1CCC2(CCN(CC(=O)N(C)C)C2=O)CC1 , what is its reported cytotoxicity at 70.5 h?
Completion: -1.33

Prompt: For Cc1cnc(N2C[C@@H]3[C@@H](C2)OCC(=O)N3CCN(C)C)nc1 , what is its reported cytotoxicity at 70.5 h?
Completion: -3.72

Prompt: For Cc1nc(-n2nc(-c3cccs3)cc2N)[nH]c(=O)c1C , what is its reported cytotoxicity at 70.5 h?
Completion: -4.91

Prompt: For CCn1cc(NC(=O)c2cccc(OCC(F)(F)F)n2)cn1 , what is its reported cytotoxicity at 70.5 h?
Completion: -7.52

Prompt: For Cn1nc(-c2cccc(Cl)c2)c(Br)c1C(=O)O , what is its reported cytotoxicity at 70.5 h?
Completion: -16.9

Prompt: For O=C(Nc1cccnc1)[C@H]1CN(Cc2ccco2)C[C@H]2OCC[C@@H]12 , what is its reported cytotoxicity at 70.5 h?
Completion: -7.09

Prompt: For O=C(c1n[nH]cc1Cl)N1CCOC(Cc2cccc(C(F)(F)F)c2)C1 (stereo not drawn) , what is its reported cytotoxicity at 70.5 h?
Completion: -4.63

Prompt: For COCCN1CCN(Cc2nc3c(s2)CCCC3)[C@H]2CS(=O)(=O)C[C@H]21 , what is its reported cytotoxicity at 70.5 h?
Completion: -8.18

Prompt: For O=C(Nc1ccc(CC(=O)N2CCSCC2)cc1)NC1CCCC1 , what is its reported cytotoxicity at 70.5 h?
Completion: -4.2

* * *

# method: Human HepG2 cell viability assay in 384 well format
# Assay type: toxicity, cell-based
# Parameters: dose 125 nL, time 70.5 hour; concentration not given beside the values
# particulars: HepG2 cells, read-out: Inhibition
reported-metric: cytotoxicity at 70.5 h (%)
The answer is to be given in %; state only the numeric part.

A selection of reference data follows.
> print(dat)
                                   compound         reported.metric  quantitative.result
1  CC(C)[C@H]1CN(CCS(C)(=O)=O)C[C@@H]1NC(=O)c1ccc(=O)[nH]c1  cytotoxicity at 70.5 h                -3.99
2      Cc1ccc(-n2ncc(C(=O)NC3CCCCC3)c2N)cc1  cytotoxicity at 70.5 h                -2.62
3  COc1ccc(CN2CCn3cc(CNC(=O)C4CCC4)nc3C2)cc1  cytotoxicity at 70.5 h                 7.38

Prompt: For CCOCC(C)(C)NC(=O)Nc1cc(F)ccc1OC , what is its reported cytotoxicity at 70.5 h?
Completion: -5.66

Prompt: For O=C(c1ccoc1)N1CC[C@@H]2[C@@H](CC1)OCCN2c1cccnc1 , what is its reported cytotoxicity at 70.5 h?
Completion: -5.9

Prompt: For Fc1cccc(CN2CCC(c3noc(-c4ccncc4)n3)CC2)c1F , what is its reported cytotoxicity at 70.5 h?
Completion: 2.58

* * *

// reported cytotoxicity at 70.5 h per item
# method: Human HepG2 cell viability assay in 384 well format
# Assay type: toxicity, cell-based
# Design: dose 125 nL, time 70.5 hour; concentration not given beside the values
# particulars: HepG2 cells, read-out: Inhibition
The answer is to be given in %; state only the numeric part.

A selection of reference data follows.
> print(dat)
                                   compound         reported.metric  quantitative.result
1  COc1ccc(CC(=O)N2CCC(Nc3ccc(C)nn3)CC2)cc1  cytotoxicity at 70.5 h                -3.12
2  CC(C)CNC(=O)[C@H]1CCS(=O)(=O)[C@@H]2CN(Cc3cccnc3)C[C@H]12  cytotoxicity at 70.5 h                 -4.4

Prompt: For CCc1nc(C2CCCN2C(=O)Cc2cccs2)no1 (centres undefined) , what is its reported cytotoxicity at 70.5 h?
Completion: -8.42

Prompt: For CC(C(=O)N1CCN(c2ccc(F)cc2)CC1)n1ccnc1 (centres undefined) , what is its reported cytotoxicity at 70.5 h?
Completion: -3.73

Prompt: For O=S(=O)(N1CCCCC1)N1CCCN(CC2CCCO2)CC1 (centres undefined) , what is its reported cytotoxicity at 70.5 h?
Completion: 1.43

Prompt: For O=C(c1cccs1)N1CCN(C(=O)c2ncoc2-c2ccco2)CC1 , what is its reported cytotoxicity at 70.5 h?
Completion: 5.95

Prompt: For CCS(=O)(=O)N1CCC(c2nccn2Cc2ccccn2)CC1 , what is its reported cytotoxicity at 70.5 h?
Completion: -5.3

Prompt: For CCc1nc(C2CCCN2C(=O)CCCn2cccn2)no1 (centres undefined) , what is its reported cytotoxicity at 70.5 h?
Completion: -7.2

Prompt: For CN1CCN(c2nc(O)cc(Cc3ccccc3F)n2)CC1 , what is its reported cytotoxicity at 70.5 h?
Completion: -4.68

Prompt: For Cc1cccc(-c2noc([C@@H]3C[C@@H](O)CN3Cc3ccc(CO)o3)n2)c1 , what is its reported cytotoxicity at 70.5 h?
Completion: 0.167
